All figures here come from patent US20250263490A1.

Provide the recorded kon for the entries that follow.
target_desc: T1, recombinant human domain 1-3His6 of the cation-independent mannose-6-phosphate receptor (human, UniProt P11717 41-467)
T1 construct: Biotinylated (NHS-PEG4-biotin) for BLI; Glycosylated; also called hDom1-3His6; hCI-M6PRD1-D3
measurement_notes: BLI at pH 7.4, 2nd of 2 repeats
The answer is to be given in M⁻¹ s⁻¹; state only the numeric part.

Task item: Give the reported kon for this binder. anti-CI-M6PR VHH9 (VHH, His6-tagged; made in Pichia pastoris) VHH: QVQLQESGGGLVQAGGSLRLSCAASGTILSIKTMGWYRQAPGKEREWVATITSSSIPMYADSVKGRFTISRDDAKNTVYLQMNSLKPEDTGVYYCNAPWTDYWGQGTQVTVSS
Reply: 1.57e+06

Task item: Provide measured kon value, entry: anti-CI-M6PR VHH6 (VHH, His6-tagged; made in E. coli) VHH: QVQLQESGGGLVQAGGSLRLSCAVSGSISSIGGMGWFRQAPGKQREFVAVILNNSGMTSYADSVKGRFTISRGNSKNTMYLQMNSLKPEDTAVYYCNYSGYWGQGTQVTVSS
Reply: 743000

Task item: For the binder anti-CI-M6PR VHH1 (VHH, His6-tagged; made in Pichia pastoris, later also in E. coli WK6) VHH: QVQLQESGGGLVQPGGSLRLSCVASGFTFDRYWMNWLRQIPGKEIEWVSTINTGGTGTYYDDSVKGRFSISRDDAKNTLYLTMNSLKTEDTAVYYCARGATYYRGNSAIRGQGTQVTVSS , give its measured kon value.
Reply: 1e+06

Task item: Tell us which kon value is on record for anti-CI-M6PR VHH5 (VHH, His6-tagged; made in Pichia pastoris, later also in E. coli WK6) VHH: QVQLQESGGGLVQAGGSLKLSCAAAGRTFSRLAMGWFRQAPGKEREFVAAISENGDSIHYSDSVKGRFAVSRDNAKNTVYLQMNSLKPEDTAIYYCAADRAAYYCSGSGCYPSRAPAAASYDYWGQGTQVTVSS
Reply: 1.8e+06

Task item: Kindly indicate its recorded kon. Item: anti-CI-M6PR VHH11 (VHH, His6-tagged; made in Pichia pastoris) VHH: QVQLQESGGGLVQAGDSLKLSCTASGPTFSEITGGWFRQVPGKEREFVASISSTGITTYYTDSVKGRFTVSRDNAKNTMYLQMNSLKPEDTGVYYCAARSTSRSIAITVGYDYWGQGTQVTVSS
Reply: 76700

Task item: Give me measured kon, please, for this binder: anti-CI-M6PR VHH3 (VHH, His6-tagged; made in Pichia pastoris) VHH: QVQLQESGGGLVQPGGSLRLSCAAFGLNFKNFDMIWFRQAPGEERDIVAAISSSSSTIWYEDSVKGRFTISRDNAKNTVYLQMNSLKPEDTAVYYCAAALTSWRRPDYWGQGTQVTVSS
Reply: 48600

Task item: Give the value of kon reported for the following: anti-CI-M6PR VHH7 (VHH, His6-tagged (Pichia pastoris)) VHH: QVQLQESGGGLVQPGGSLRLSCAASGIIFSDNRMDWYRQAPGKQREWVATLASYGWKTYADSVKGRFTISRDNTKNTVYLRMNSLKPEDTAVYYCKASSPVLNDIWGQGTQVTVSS
Reply: 1.3e+06

Task item: Given the binder anti-CI-M6PR VHH10 (VHH, His6-tagged; made in Pichia pastoris) VHH: QVQLQESGGGSVQAGGSLRLSCAPAGRTFSRIRMGWFRQAPGKEREFVAAISSGGLSYYADSMKGRFTISRDNAKNTVLLQMNSLEPDDTAVYYCAAVLNDYIDDYVARNPTLYDYWGQGTQVTVSS , write its reported kon.
Reply: 38100
